Measured values drawn from PubChem BioAssay (NCATS) for this set.

System: CRL-7250
experimental protocol: Cytotoxic Profiling of Annotated Libraries Using Quantitative High-Throughput Screening (AID 1296008); also: % is scaled to controls: 0 for no effect and ±100 for the full control effect; nearly all actives have a fitted effect of over 60% in size
measurement context: Five cell lines viability, CellTiter-Glo ATP luminescence, 48-72 h; hits give low values
Inconclusive results are not listed.
Provide the reported max response of each item.
A number alone suffices; assume %.

*Q* What value of max response has been reported for the following molecule? C=CC(C)(CCC=C(C)C)O[C@@H]1O[C@H](CO)[C@@H](O)[C@H](O)[C@H]1O (some centres undefined)
*A* -23.7

*Q* Give the measured max response of CCC(C)/C=C(C)/C=C/C1=CC2=C(Cl)C(=O)C(C)(O)C(=O)C2(O)C(OC)O1 (centres undefined) .
*A* -11.8

*Q* Endpoint output: max response of C=CC(C)(O)CC/C=C(\C)C(=O)O[C@@H]1[C@@H](O)[C@H](OC(C)(C=C)CC/C=C(\C)C(=O)O[C@@H]2O[C@H](CO)[C@@H](O)[C@H](O)[C@H]2O)O[C@H](CO)[C@H]1OC(=O)/C(C)=C/CCC(C)(O)C=C (some centres undefined) . Value?
*A* 1.38

*Q* What value of max response has been reported for the following molecule? COc1ccccc1N1CCN(CCCCNC(=O)c2ccc(-c3cscn3)cc2)CC1
*A* -3.11
